meta.source: patent EP4707304A1

- Assay system: T1, VLP-hCLDN6 (human) (UniProt P56747)
- T1 sequence: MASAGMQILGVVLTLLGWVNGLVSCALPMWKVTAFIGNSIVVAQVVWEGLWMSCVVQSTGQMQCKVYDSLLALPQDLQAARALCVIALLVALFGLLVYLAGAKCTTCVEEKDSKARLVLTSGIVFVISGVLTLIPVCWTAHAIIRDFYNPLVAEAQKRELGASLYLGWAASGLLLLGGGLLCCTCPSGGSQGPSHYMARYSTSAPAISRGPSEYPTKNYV
- Assay explanation: ELISA, coated VLP-hCLDN6, 100 ul antibody sample, HRP-Protein A
Endpoint name: OD450
Form: value (number only, do not type unit).

Consider the reported OD450 for these binders:
humanized antibody hAb-23 (antibody, V domains shown) VH: EVKLVESGGGLVKPGGSLRLSCAASGFTFNSYTMSWVRQTPAKRLEWVVTISSGGGRTYYPDSVKGRFTISRDNARNTLYLQMSSLRAEDTAVYYCIRGDYRYDGFAYWGQGTLVTVSS VL: DIQMTQSPSSLSASVGDRVTITCRASENIDSYLAWYQQKPGKSPQLLVYASTLLQDGVPSRFSGSRSGTQFTLTISSLQPEDVARYYCQHYYSIPYTFGSGTKLEIK : 1.82
humanized antibody hAb-22 (antibody, V domains shown) VH: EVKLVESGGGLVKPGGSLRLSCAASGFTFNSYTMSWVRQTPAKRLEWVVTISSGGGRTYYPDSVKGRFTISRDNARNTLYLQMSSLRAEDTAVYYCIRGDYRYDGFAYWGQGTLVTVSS VL: DIQMTQSPSSLSASVGDRVTITCRASENIDSYLAWYQQKPGKSPQLLVYASTLLQDGVPSRFSGSRSGTDFTLTISSLQPEDVATYYCQHYYSIPYTFGSGTKLEIK : 1.63
humanized antibody hAb-16 (antibody, V domains shown) VH: EVKLVESGGGLVQPGGSLRLSCAASGFTFNSYTMSWVRQAPGKRLEWVVTISSGGGRTYYPDSVKGRFTISRDNAKNTLYLQMSSLRAEDTAVYYCIRGDYRYDGFAYWGQGTLVTVSS VL: DIQMTQSPSSLSASVGDRVTITCRASENIDSYLAWYQQKPGKSPQLLVYASTLLQDGVPSRFSGSRSGTQFTLTISSLQPEDFATYYCQHYYSIPYTFGSGTKLEIK : 1.39
humanized antibody hAb-19 (antibody, V domains shown) VH: EVKLVESGGGLVQPGGSLRLSCAASGFTFNSYTMSWVRQTPAKRLEWVVTISSGGGRTYYPDSVKGRFTISRDNAKNTLYLQMSSLRAEDTAVYYCIRGDYRYDGFAYWGQGTLVTVSS VL: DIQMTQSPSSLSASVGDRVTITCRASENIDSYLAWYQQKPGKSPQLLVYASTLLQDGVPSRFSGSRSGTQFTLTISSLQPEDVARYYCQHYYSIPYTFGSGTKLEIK : 1.7
humanized antibody hAb-17 (antibody, V domains shown) VH: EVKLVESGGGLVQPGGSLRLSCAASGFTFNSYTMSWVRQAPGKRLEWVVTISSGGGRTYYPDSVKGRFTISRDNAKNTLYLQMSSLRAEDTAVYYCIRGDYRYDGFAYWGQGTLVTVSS VL: DIQMTQSPSSLSASVGDRVTITCRASENIDSYLAWYQQKPGKSPQLLVYASTLLVDGVPSRFSGSRSGTQFSLTISSLQPEDVARYYCQHYYSIPYTFGSGTKLEIK : 1.93
humanized antibody hAb-12 (antibody, V domains shown) VH: EVKLVESGGGLVKPGGSLRLSCAASGFTFNSYTMSWVRQTPAKRLEWVVTISSGGGRTYYPDSVKGRFTISRDNAKNTLYLQMSSLRAEDTAVYYCIRGDYRYDGFAYWGQGTLVTVSS VL: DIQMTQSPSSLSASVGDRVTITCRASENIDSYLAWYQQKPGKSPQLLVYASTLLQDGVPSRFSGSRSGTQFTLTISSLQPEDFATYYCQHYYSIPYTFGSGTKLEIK : 1.76

Supply OD450 value. Item: humanized antibody hAb-21 (antibody, V domains shown) VH: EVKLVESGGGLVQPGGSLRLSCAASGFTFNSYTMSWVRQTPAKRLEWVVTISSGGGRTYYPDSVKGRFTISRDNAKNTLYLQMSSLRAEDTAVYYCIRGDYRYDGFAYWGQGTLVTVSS VL: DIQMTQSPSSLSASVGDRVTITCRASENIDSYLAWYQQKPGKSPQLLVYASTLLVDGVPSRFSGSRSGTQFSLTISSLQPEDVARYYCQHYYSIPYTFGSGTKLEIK 2.23

Supply OD450 value. Item: humanized antibody hAb-25 (antibody, V domains shown) VH: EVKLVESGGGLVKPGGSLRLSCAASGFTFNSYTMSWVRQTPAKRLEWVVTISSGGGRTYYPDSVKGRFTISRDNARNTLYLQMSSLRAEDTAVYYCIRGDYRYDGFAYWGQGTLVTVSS VL: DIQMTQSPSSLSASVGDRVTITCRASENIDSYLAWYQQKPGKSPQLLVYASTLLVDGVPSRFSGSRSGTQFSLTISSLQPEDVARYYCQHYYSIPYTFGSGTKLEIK 2.05
